Measured z-score, listed per entry for reference.
- Protocol Notes: growth of efflux-deficient E. coli DRC39 – strain DRC39, OD650, 24 h, E. coli filamentation inducers, primary screen (AID 1178);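 note: growth measured as culture turbidity by optical density at 650 nm; test concentration not given here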
- Test Conditions: E. coli DRC39 acrAB, higher = more signal, called active from +8 up or from −8 down
Note: the reply should be a number with no unit written.

query: Quick one: z-score for O=C(NCC(F)(F)F)[C@@H]1c2ccccc2C(=O)N(Cc2ccccc2)[C@H]1c1ccc(CO)cc1 ?
result: 0.126

query: # get_value(readout='z-score', item= CCCCN1CC=CC23O[C@@H]4C=CCCOC(=O)C4[C@H]2C(=O)N(CCCO)[C@@H]3C1=O (stereo partly specified) )
result: -1.54

query: Quick one: z-score for O=C1OCCC=C[C@H]2OC34C=CCN(c5ccc6ccccc6c5)C(=O)[C@H]3N(CCCCCCO)C(=O)[C@@H]4C12 (stereo partly specified) ?
result: 0.982

----------
- Protocol Notes: probe aXIP binding to arrayed compounds – biochemical, NeuroSMM set, 635/667 nm fluorescence, primary screen (AID 1119);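 note: probe is the protein aXip251-270 applied at 1 µg/mL to compound-printed slides; binding of probe to printed compounds measured as 667 nm fluorescence plus signal to noise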
- Test Conditions: small-molecule microarray, higher = more signal, called active from +8 up or from −8 down
Recorded Metric: composite Z-score
No unit in the answer, please; the number alone is enough.

Examples from the recorded data:
Molecule	Reported
CN1C(=O)C2C=CC(C(O)c3ccc(Br)cc3)N(Nc3ccccc3)C2C1=O (centres undefined)	0.304
CCN(CC)c1ccc(N2CC=CC34O[C@@H]5/C=C\CCC(C)OC(=O)C5[C@H]3C(=O)N(CCCCCCO)[C@@H]4C2=O)cc1 (some centres undefined)	0.184
O=C(NCC(O)CO)[C@@]1(Cc2ccccc2)COC(c2ccc(OCCCO)cc2)=N1 (some centres undefined)	-0.936

API: the following record is the query input.
query: Param item = C[C@]1(C(=O)NCC(F)(F)F)c2ccccc2C(=O)N(Cc2cc(F)cc(C(F)(F)F)c2)[C@H]1c1ccc(CO)cc1 ; retrieve measured composite Z-score.
result: -0.191

----------
- Protocol Notes: growth modulation of vineyard yeast isolate – strain RM11-1a, OD600, basal, 24 h, primary screen (AID 1177);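 note: cultures grown under basal conditions with no added stressor; test concentration not given here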
- Test Conditions: S. cerevisiae RM11-1a growth, OD600, 24 h; higher = more signal, called active from +8 up or from −8 down
Decision: z-score >= 0.02 yields TRUE, all other cases yield FALSE.

Would you please look over these solved cases?
Compound	Qualitative Label
CC1CC/C=C\[C@H]2OC34C=CCN(c5ccc6ccccc6c5)C(=O)[C@H]3N(CCCCCO)C(=O)[C@@H]4C2C(=O)O1 (stereo not given in full)	FALSE
O=C1O[C@H](c2ccccc2)[C@H](c2ccccc2)N2[C@H]1[C@@H](C(=O)NC[C@H](O)c1ccccc1)[C@]1(C(=O)Nc3ccc(C#CC4(O)CCCCCC4)cc31)[C@H]2c1ccccc1OCCO	TRUE
COCCOC(=O)N1C(=O)[C@@]2(c3cc(C#CCCO)ccc31)[C@H](c1ccc(O)cc1)N1[C@H](c3ccccc3)[C@H](c3ccccc3)OC(=O)[C@H]1[C@@H]2C(=O)N1CCCCCCC1	TRUE
C=CC[C@@]1(C(N)=O)N=C(c2ccc(OCCCO)cc2)O[C@@H]1c1ccccc1N=[N+]=[N-]	TRUE
O=S(=O)(NCCCO)c1ccc(Br)cc1	FALSE

query: Say whether O=C1C[C@@](C(=O)O)(c2ccc([N+](=O)[O-])cc2)[C@@H](c2ccc(CO)cc2I)N1C1CCCCC1 shows z-score of 0.02 or more.
result: FALSE

query: Does the compound CCOC(=O)C1=CC[C@@H](c2ccccc2)N(S(=O)(=O)c2ccc(C)cc2)[C@H]1c1ccc(C#N)cc1 have recorded z-score that is 0.02 or more?
result: FALSE

query: Hi, just wondering whether CC(C)(C)OC(=O)CC[C@@]1(C(=O)NCC(O)CO)N=C(c2ccc(OCCCO)cc2)O[C@@H]1c1ccccc1 (stereo not given in full) shows z-score of 0.02 or higher.
result: FALSE

query: Threshold query (z-score >= 0.02) on COCCOC(=O)N1C(=O)[C@@]2(c3cc(C#CC4=CCCCC4)ccc31)[C@H](C(=O)N1CCN(c3ncccn3)CC1)[C@H]1C(=O)O[C@H](c3ccccc3)[C@H](c3ccccc3)N1[C@@H]2c1ccc(OCCO)cc1
result: TRUE

query: Is it the case that COCCOC(=O)N1C(=O)[C@@]2(c3cc(C#CC4(O)CCCCCC4)ccc31)[C@H](c1ccc(O)cc1)N1[C@H](c3ccccc3)[C@H](c3ccccc3)OC(=O)[C@H]1[C@@H]2C(=O)N1CCc2cc(OC)c(OC)cc2C1 has z-score reaching or exceeding 0.02?
result: FALSE
